test system: SW620; experiment: CCK-8 tumor cell proliferation, SW620; assay type: cell-based, Human; conditions: Table 19, IRAK4 inhibitor based; SW620; read-out: IC50 inhibiting proliferation of tumor cells, SW620
assay-readout: IC50

[ask] Using the record for CC(C)Nc1cc(-n2ccc3cc(C#N)cnc32)ncc1C(=O)N[C@H]1CC[C@H](C(=O)NCc2ccc3c(c2)CN(C2CCC(=O)NC2=O)C3=O)CC1 (stereo partly shown) , report its IC50.
[reply] 100 to 500 nM

* * *

test system: NCI-H1975; assay: CCK-8 tumor cell proliferation, NCI-H1975; format: cell-based, Human; details: Homo sapiens; Table 15, ALK inhibitor based; NCI-H1975; read-out: IC50 inhibiting proliferation of tumor cells, NCI-H1975
Here, each record is paired with measured IC50 data.

Below are worked cases with known answers.
| compound | assay-readout | result |
| --- | --- | --- |
| C[C@@H](Oc1cc(-c2cnn(C3CCN(Cc4ccc5c(c4)CN(C4CCC(=O)NC4=O)C5=O)CC3)c2)cnc1N)c1c(Cl)ccc(F)c1Cl (stereo partly drawn) | IC50 | 1000 to 5000 nM |
| CCc1cc2c(cc1N1CCC(N3CCN(Cc4ccc5c(c4)CN(C4CCC(=O)NC4=O)C5=O)CC3)CC1)C(C)(C)c1[nH]c3cc(C#N)ccc3c1C2=O (stereo not drawn) | IC50 | 500 to 1000 nM |

[ask] Would you kindly share the measured IC50 for COc1cc(N2CCC(N3CCN(Cc4ccc5c(c4)CN(C4CCC(=O)NC4=O)C5=O)CC3)CC2)ccc1Nc1ncc(Cl)c(Nc2ccccc2P(C)(C)=O)n1 (stereo not drawn) ?
[reply] 100 to 500 nM

* * *

Tested on: Vcap
Test: CCK-8 tumor cell proliferation, Vcap
Assay type: cell-based, Human
Conditions: Homo sapiens, VCaP, 96 h, Table 7, designed based on BTK inhibitors; 96 h; read-out: IC50 for inhibiting the proliferation of tumor cells, Vcap
Experimental: The tumor cells used herein were cultured in a cell culture medium listed in table 4 at 37° C. in an incubator with 5% CO2. […] IC50 values of the compounds of the present disclosure (including the compounds in Tables 1 and 3, and compounds of examples) were measured using the Meilun Cell Counting Kit-8 kit from Dalian Meilun Biotech Co., Ltd. Assay details are as follows: tumor cells were seeded in a 96-well plate at a density listed in Table 5. […]
assay-readout: IC50

[ask] Kindly state the measured IC50 obtained for C=CC(=O)N1CCC[C@@H](n2nc(-c3ccc(Oc4ccccc4)cc3)c3c(N)ncnc32)C1 [ibrutinib, Ibrutinib, reference compound] with Vcap.
[reply] > 10 µM

* * *

Reported IC50 values follow for various molecules
system: SW620; experiment: CCK-8 tumor cell proliferation, SW620; format: cell-based, Human; details: Homo sapiens, SW-620; Table 18, FAK inhibitor based; SW620; read-out: IC50 inhibiting proliferation of tumor cells, SW620

| molecule | assay-readout | result |
| --- | --- | --- |
| CNC(=O)c1ccc(Nc2ncc(C(F)(F)F)c(NCc3nccnc3N(C)S(C)(=O)=O)n2)cc1 [Defactinib, reference compound] | IC50 | 1000 to 5000 nM |
| CNC(=O)c1ccccc1Nc1cc(Nc2cc(C)c(N3CCN(Cc4ccc5c(c4)CN(C4CCC(=O)NC4=O)C5=O)CC3)cc2OC(C)C)ncc1C(F)(F)F (stereo not drawn) | IC50 | 50 to 100 nM |

Continue with the molecule presented below.
[ask] Consider the molecule CNC(=O)c1ccccc1Nc1cc(Nc2cc(C)c(N3CCN(Cc4cc5c(cc4F)C(=O)N(C4CCC(=O)NC4=O)C5)CC3)cc2OC(C)C)ncc1C(F)(F)F (stereo not drawn) and give its measured IC50.
[reply] < 50 nM

* * *

tested on: LNcap; assay: CCK-8 tumor cell proliferation, LNcap; type: cell-based, Human; conditions: Homo sapiens; Table 19, IRAK4 inhibitor based; Lncap; read-out: IC50 inhibiting proliferation of tumor cells, Lncap
pIC50: −log10 of the molar value.
assay-readout: pIC50

Below, each entry is followed by its recorded pIC50 result.
| compound | assay-readout | result |
| --- | --- | --- |
| O=C1CCC(N2Cc3c(ccc(CN4CCC(n5cc(NC(=O)c6coc(-c7ccnc(NCC8CC8)c7)n6)c(C(F)F)n5)CC4)c3F)C2=O)C(=O)N1 (centres unmarked) | pIC50 | > 7.30 |
| O=C1CCC(N2Cc3c(CN4CCC(n5cc(NC(=O)c6coc(-c7ccnc(NCC8CC8)c7)n6)c(C(F)F)n5)CC4)cccc3C2=O)C(=O)N1 (centres unmarked) | pIC50 | 6.30 to 7.00 |
| O=C1CCC(N2C(=O)c3ccc(CN4CCC(n5cc(NC(=O)c6coc(-c7ccnc(NCC8CC8)c7)n6)c(C(F)F)n5)CC4)cc3C2=O)C(=O)N1 (centres unmarked) | pIC50 | 6.00 to 6.30 |

[ask] Quick one: pIC50 of O=C1CCC(N2Cc3cc(CN4CCC(n5cc(NC(=O)c6coc(-c7ccnc(NCC(F)(F)F)c7)n6)c(C(F)F)n5)CC4)cc(F)c3C2=O)C(=O)N1 (centres unmarked) ?
[reply] > 7.30

[ask] # iterate: O=C1CCC(N2Cc3cc(CN4CCC(n5cc(NC(=O)c6coc(-c7ccnc(NCC8CC8)c7)n6)c(C(F)F)n5)CC4)ccc3C2=O)C(=O)N1 (centres unmarked)
[reply] > 7.30

[ask] Please do the same for O=C1CCC(N2Cc3cc(CN4CCN(c5ccc(-n6cc(NC(=O)c7coc(-c8ccnc(NCC(F)(F)F)c8)n7)c(C(F)F)n6)cc5)CC4)c(F)cc3C2=O)C(=O)N1 (centres unmarked) as well.
[reply] 6.30 to 7.00

[ask] Cool, now O=C1CCC(N2Cc3c(CN4CCN(c5ccc(-n6cc(NC(=O)c7coc(-c8ccnc(NCC(F)(F)F)c8)n7)c(C(F)F)n6)cc5)CC4)cccc3C2=O)C(=O)N1 (centres unmarked)
[reply] 7.00 to 7.30

[ask] Now give it for CC(C)(O)c1cc2nc(C3CCN(Cc4cc5c(cc4F)C(=O)N(C4CCC(=O)NC4=O)C5)CC3)sc2cc1NC(=O)c1cccc(C(F)(F)F)n1 (centres unmarked) too.
[reply] 6.30 to 7.00

* * *

IC50: recorded values
test system: NCI-H1975; assay: CCK-8 tumor cell proliferation, NCI-H1975; type: cell-based, Human; conditions: Homo sapiens; Table 15, ALK inhibitor based; NCI-H1975; read-out: IC50 inhibiting proliferation of tumor cells, NCI-H1975

[ask] Consider the compound shown here: COc1cc(N2CCC(N(C)Cc3ccc4c(c3)CN(C3CCC(=O)NC3=O)C4=O)CC2)ccc1Nc1ncc(Cl)c(Nc2ccccc2P(C)(C)=O)n1 (stereo not drawn) What is its recorded IC50?
[reply] < 50 nM

[ask] Now the compound COc1cc(N2CCC(NCc3ccc4c(c3)CN(C3CCC(=O)NC3=O)C4=O)CC2)ccc1Nc1ncc(Cl)c(Nc2ccccc2P(C)(C)=O)n1 (stereo not drawn)
[reply] 50 to 100 nM

[ask] // query: CCc1cc2c(cc1N1CCC(N3CCOCC3)CC1)C(C)(C)c1[nH]c3cc(C#N)ccc3c1C2=O [alectinib, reference compound]
[reply] 1000 to 5000 nM

[ask] Next compound up: COc1cc(N2CCC(N3CCN(C)CC3)CC2)ccc1Nc1ncc(Cl)c(Nc2ccccc2P(C)(C)=O)n1 [brigatinib, reference compound]
[reply] 500 to 1000 nM

[ask] Also check CCc1cc2c(cc1N1CCC(N3CCN(Cc4cc(F)c5c(c4)CN(C4CCC(=O)NC4=O)C5=O)CC3)CC1)C(C)(C)c1[nH]c3cc(C#N)ccc3c1C2=O (stereo not drawn)
[reply] 50 to 100 nM

[ask] What about this compound? Cc1cc(Nc2ncc(Cl)c(Nc3ccccc3S(=O)(=O)C(C)C)n2)c(OC(C)C)cc1N1CCC(N(C)Cc2ccc3c(c2)CN(C2CCC(=O)NC2=O)C3=O)CC1 (stereo not drawn)
[reply] 1000 to 5000 nM

* * *

test system: NCI-H1666; test: CCK-8 tumor cell proliferation, NCI-H1666; type: cell-based, Human; settings: Table 19, given as number, read-out: IC50 inhibiting proliferation of tumor cells, NCI-H1666
assay-readout: IC50

[ask] What value of IC50 has been recorded for this entry: CC[C@@H]1[C@H](F)C(=O)N[C@@H]1COc1nccc2cc(C(N)=O)c(OC)cc12 [PF06650833, reference compound]
[reply] > 10 µM

* * *

system: NCI-H1975; assay: CCK-8 tumor cell proliferation, NCI-H1975; format: cell-based, Human; settings: Table 7, designed based on BTK inhibitors; 96 h
assay-readout: IC50 for inhibiting the proliferation of tumor cells, NCI-H1975

| molecule | result |
| --- | --- |
| Nc1ncnc2c1c(-c1ccc(Oc3ccccc3)cc1)nn2C1CCN(Cc2cc(F)c3c(c2)CN(C2CCC(=O)NC2=O)C3=O)CC1 (stereo not drawn) | A+ |
| Nc1ncnc2c1c(-c1ccc(Oc3ccccc3)cc1)nn2C1CCN(Cc2ccc3c(c2)CN(C2CCC(=O)NC2=O)C3=O)CC1 (stereo not drawn) | A+ |
| Nc1ncnc2c1c(-c1ccc(Oc3ccccc3)cc1)nn2[C@H]1CCN(Cc2ccc3c(c2)CN(C2CCC(=O)NC2=O)C3=O)C[C@@H]1F (stereo partly drawn) | A+ |
